Reference source: paper PMC4336329

# testSystem: human ether-à-go-go-related gene (hERG) potassium channel (human);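 note: peak tail current of the secondary pulse compared with the same well before compound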
# Sequence (Q12809 whole entry, looked up): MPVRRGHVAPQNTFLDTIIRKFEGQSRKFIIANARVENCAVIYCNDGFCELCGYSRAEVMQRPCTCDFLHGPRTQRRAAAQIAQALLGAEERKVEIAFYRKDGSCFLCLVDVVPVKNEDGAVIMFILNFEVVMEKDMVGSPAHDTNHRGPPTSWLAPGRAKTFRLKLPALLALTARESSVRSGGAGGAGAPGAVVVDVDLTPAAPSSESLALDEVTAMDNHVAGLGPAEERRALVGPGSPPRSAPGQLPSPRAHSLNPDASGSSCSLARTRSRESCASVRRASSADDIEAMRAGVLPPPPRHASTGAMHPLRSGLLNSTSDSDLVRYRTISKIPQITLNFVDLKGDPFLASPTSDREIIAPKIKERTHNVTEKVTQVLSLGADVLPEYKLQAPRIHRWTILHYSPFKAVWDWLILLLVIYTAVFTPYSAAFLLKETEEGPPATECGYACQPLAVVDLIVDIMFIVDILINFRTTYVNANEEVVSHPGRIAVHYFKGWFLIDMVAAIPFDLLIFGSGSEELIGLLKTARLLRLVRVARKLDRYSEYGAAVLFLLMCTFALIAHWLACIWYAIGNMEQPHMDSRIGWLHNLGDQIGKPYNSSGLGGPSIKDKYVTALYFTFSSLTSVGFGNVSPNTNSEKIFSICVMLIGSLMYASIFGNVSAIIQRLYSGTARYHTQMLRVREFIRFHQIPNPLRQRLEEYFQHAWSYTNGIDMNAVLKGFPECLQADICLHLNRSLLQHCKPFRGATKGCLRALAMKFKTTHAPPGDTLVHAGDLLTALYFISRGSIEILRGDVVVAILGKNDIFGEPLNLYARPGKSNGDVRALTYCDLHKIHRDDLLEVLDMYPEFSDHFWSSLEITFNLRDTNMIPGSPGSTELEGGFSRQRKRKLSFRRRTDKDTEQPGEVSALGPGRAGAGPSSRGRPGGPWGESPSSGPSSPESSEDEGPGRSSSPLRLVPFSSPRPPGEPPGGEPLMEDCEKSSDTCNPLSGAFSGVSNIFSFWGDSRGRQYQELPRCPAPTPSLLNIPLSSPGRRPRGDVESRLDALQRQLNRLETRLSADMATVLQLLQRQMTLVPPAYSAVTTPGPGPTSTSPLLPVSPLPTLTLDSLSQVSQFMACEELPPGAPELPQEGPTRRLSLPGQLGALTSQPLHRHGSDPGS
# testSummary: primary screen, population patch clamp on CHO cells stably expressing hERG; higher = less effect of the substance
Hit rate of the full screen: of about 310,000 compounds, about 14,000 (4.5%) showed an effect of 50% or more. Effects have a minus sign here. For the sample, strong results were picked, then their nearest neighbours and some compounds at random.
measuredAttribute: hERG current change (%, negative = inhibition) at 10uM (%)
Only the number, expressed in %, is required.

* O=c1[nH]c(C2CCN(S(=O)(=O)c3ccccc3)CC2)nc2c1nnn2Cc1c(F)cccc1Cl | -2.84
* O=C(Nc1c(F)cc(F)cc1Br)c1cc(S(=O)(=O)N2CCN(c3ccccn3)CC2)ccc1F | -15.9
* COc1ccc(C(=O)NCCc2ccc(C)cc2)cc1OC1CCN(C(C)=O)CC1 | -4.05
* Cc1cccc(OCc2n[nH]c(=S)n2Cc2ccccc2)c1 | 11.8
* COc1ccc(C(=O)NC2CC2)cc1OC1CCN(Cc2cc(C)cc(C)c2)CC1 | -70.2
* COc1cc(C(=O)NC2CC(C)(C)CC(C)(C)C2)ccc1OC1CCN(C(C)=O)CC1 | 6.2

For record `COc1ccc(C(=O)NC2CCCCCCC2)cc1OC` the listed hERG current change (%, negative = inhibition) at 10uM is 1.54

For record `CCN1CCN(S(=O)(=O)c2ccc(F)c(C(=O)Nc3c(F)cc(F)cc3Br)c2)CC1` the listed hERG current change (%, negative = inhibition) at 10uM is -17.1

For record `c1ccc(C2Nc3cccc4cccc(c34)N2)cc1` the listed hERG current change (%, negative = inhibition) at 10uM is 14
